compound: O=C([O-])[C@H](Cc1ccc([O-])cc1)/N=C/c1ccccc1OCc1cn(-c2ccccc2)nn1.[Na+].[Na+]
melting point: 148 to 150 °C

compound: O=Cc1ccccc1OCc1cn(-c2ccccc2)nn1
melting point: 147 to 149 °C

compound: O=C(O)CCC(/N=C/c1ccccc1OCc1cn(-c2ccccc2)nn1)C(=O)O (stereo in doubt)
melting point: 146 to 148 °C

compound: O=C([O-])[C@H](Cc1c[nH]c2ccccc12)/N=C/c1ccccc1OCc1cn(-c2ccccc2)nn1.[Na+]
melting point: 196 to 198 °C

----------
Tested on: PC3 (prostate) cancer cell lines
Assay: AlamarBlue cytotoxicity assay, PC3
Type: cell-based
Details: PC3, 75 µg/mL
Description: PC3, A375, and MRC5 cell lines were purchased from ATCC and were cultured in Dulbecco’s Modified Eagle Media (DMEM) supplemented with 10% Fetal Bovine Serum (FBS) (Highveld biological), 1% gentamycin and 1% penicillin/streptomycin (Sigma, USA). […] PC3, A375, and MRC5 cell lines were cultured in 96 well tissue culture plates. […] Cell viability was measured using AlamarBlue and readings were obtained in terms of fluorescent values using a microplate reader (BioTek Synergy HT). […]

compound: O=Cc1ccccc1OCc1cn(-c2ccccc2)nn1
viability at 75 µg/mL (%): 47

compound: O=C(O)CCC(/N=C/c1ccccc1OCc1cn(-c2ccccc2)nn1)C(=O)O (stereo in doubt)
viability at 75 µg/mL (%): 36

compound: O=C([O-])[C@H](Cc1c[nH]c2ccccc12)/N=C/c1ccccc1OCc1cn(-c2ccccc2)nn1.[Na+]
viability at 75 µg/mL (%): 22

compound: O=C([O-])[C@H](Cc1ccc([O-])cc1)/N=C/c1ccccc1OCc1cn(-c2ccccc2)nn1.[Na+].[Na+]
viability at 75 µg/mL (%): 34

----------
Measured viability at 15 µg/mL accompanies every entry in the list below.
tested on: A375 (skin) cancer cell lines; experiment: AlamarBlue cytotoxicity assay, A375; type: cell-based; details: Homo sapiens, A-375; A375, 15 µg/mL

compound: O=Cc1ccccc1OCc1cn(-c2ccccc2)nn1
viability at 15 µg/mL: 69%

compound: O=C([O-])[C@H](Cc1c[nH]c2ccccc12)/N=C/c1ccccc1OCc1cn(-c2ccccc2)nn1.[Na+]
viability at 15 µg/mL: 57.7%

compound: O=C([O-])[C@H](Cc1ccc([O-])cc1)/N=C/c1ccccc1OCc1cn(-c2ccccc2)nn1.[Na+].[Na+]
viability at 15 µg/mL: 59.7%

compound: O=C(O)CCC(/N=C/c1ccccc1OCc1cn(-c2ccccc2)nn1)C(=O)O (stereo in doubt)
viability at 15 µg/mL: 67%

----------
Measured viability at 25 µg/mL accompanies every entry in the list below.
tested on: PC3 (prostate) cancer cell lines; assay: AlamarBlue cytotoxicity assay, PC3; format: cell-based; settings: PC3, 25 µg/mL

compound: O=C(O)CCC(/N=C/c1ccccc1OCc1cn(-c2ccccc2)nn1)C(=O)O (stereo in doubt) [Compound 2]
viability at 25 µg/mL [%]: 71
--
compound: O=C([O-])[C@H](Cc1ccc([O-])cc1)/N=C/c1ccccc1OCc1cn(-c2ccccc2)nn1.[Na+].[Na+] [Compound 4]
viability at 25 µg/mL [%]: 70
--
compound: O=C([O-])[C@H](Cc1c[nH]c2ccccc12)/N=C/c1ccccc1OCc1cn(-c2ccccc2)nn1.[Na+] [Compound 3]
viability at 25 µg/mL [%]: 58
--
compound: O=Cc1ccccc1OCc1cn(-c2ccccc2)nn1 [Compound 1]
viability at 25 µg/mL [%]: 80
